- experimental.protocol: in vitro
- condition.description: human, % Cytotoxicity (Fig1E), drug 0.04115 µM
property.measured: cytotoxicity (%)
Output spec: scalar in %, unitless text.

cytotoxicity for CC(C)C(=O)OCC1OC(C#N)(c2ccc3c(N)ncnn23)C(OC(=O)C(C)C)C1OC(=O)C(C)C (centres unmarked) [GS-621763] is 5.67

Sample N#C[C@@]1(c2ccc3c(N)ncnn23)O[C@H](CO)[C@@H](O)[C@H]1O [GS-441524, reference compound] ; cytotoxicity observed: 2.96

====

- experimental.protocol: in vitro
- condition.description: human, % Cytotoxicity (Fig1E), drug 0.01372 µM
property.measured: cytotoxicity (%)
Quick note: give the figure in %, leave out the unit.

* CC(C)C(=O)OCC1OC(C#N)(c2ccc3c(N)ncnn23)C(OC(=O)C(C)C)C1OC(=O)C(C)C (centres unmarked) | 4.34

Now for another entry.
What the record says about N#C[C@@]1(c2ccc3c(N)ncnn23)O[C@H](CO)[C@@H](O)[C@H]1O [GS-441524, reference compound] : cytotoxicity is 6.91
